# target.under.test: GABA-A receptor; alpha-3/beta-3/gamma-2 (Homo sapiens, UniProt P18507+P28472+P34903)
# Sequence (P18507 whole entry): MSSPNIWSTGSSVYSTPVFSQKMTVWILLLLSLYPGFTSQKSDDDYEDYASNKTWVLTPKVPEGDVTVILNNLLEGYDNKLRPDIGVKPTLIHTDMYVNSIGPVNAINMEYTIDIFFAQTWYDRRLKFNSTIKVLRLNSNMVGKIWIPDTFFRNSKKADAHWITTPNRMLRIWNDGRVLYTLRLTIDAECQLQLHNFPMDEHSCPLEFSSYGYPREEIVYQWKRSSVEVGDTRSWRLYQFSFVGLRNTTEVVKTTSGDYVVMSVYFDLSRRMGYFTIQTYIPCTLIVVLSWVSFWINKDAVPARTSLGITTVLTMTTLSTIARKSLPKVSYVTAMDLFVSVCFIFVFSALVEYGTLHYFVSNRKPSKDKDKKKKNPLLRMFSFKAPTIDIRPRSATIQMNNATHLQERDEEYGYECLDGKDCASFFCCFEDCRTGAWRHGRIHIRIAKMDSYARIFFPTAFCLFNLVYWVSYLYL
# Sequence (P28472 whole entry): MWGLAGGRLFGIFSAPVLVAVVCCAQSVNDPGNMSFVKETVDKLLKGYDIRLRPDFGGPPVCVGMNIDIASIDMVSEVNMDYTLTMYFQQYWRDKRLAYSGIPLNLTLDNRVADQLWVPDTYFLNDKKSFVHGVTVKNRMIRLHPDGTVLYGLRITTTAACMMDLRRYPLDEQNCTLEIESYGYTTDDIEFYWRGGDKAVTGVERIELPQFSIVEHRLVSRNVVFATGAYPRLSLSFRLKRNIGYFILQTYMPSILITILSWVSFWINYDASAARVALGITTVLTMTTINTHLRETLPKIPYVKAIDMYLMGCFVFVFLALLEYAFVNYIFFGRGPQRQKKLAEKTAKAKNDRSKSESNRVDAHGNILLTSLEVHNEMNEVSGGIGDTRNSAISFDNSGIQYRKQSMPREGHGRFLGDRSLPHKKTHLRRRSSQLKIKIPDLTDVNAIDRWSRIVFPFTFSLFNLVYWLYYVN
# Sequence (P34903 whole entry): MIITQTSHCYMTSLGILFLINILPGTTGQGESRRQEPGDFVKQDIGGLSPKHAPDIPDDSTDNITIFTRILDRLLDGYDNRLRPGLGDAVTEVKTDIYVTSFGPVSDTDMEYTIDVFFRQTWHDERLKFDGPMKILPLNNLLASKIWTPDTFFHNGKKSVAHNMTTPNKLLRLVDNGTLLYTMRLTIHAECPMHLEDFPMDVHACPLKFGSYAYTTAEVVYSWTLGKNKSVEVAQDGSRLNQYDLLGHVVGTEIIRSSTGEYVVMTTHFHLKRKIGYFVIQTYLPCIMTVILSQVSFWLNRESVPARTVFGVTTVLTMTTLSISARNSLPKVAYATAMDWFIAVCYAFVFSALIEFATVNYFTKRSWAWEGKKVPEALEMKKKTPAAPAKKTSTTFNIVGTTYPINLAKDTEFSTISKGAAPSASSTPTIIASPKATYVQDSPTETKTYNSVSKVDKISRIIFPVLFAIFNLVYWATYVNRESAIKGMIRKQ
# measurement.protocol: Displacement of [3H]flumazenil human recombinant alpha3beta3gamma2 GABA(A) receptor expressed in HEK293 cells after 30 mins by glass fiber filtration assay
# settings: in the assay text read “after 40 mins” for “after 30 mins”
quantity.measured: Ki (nM)

What does the data say about its Ki? Entry: Cc1ccc2[nH]c(=O)n3c(=O)n(-c4ccccc4)nc3c2c1
1.3

A = Cc1ccc(-n2nc3c4cc(CCc5ccccc5)ccc4[nH]c(=O)n3c2=O)cc1
B = Cc1ccc(-n2nc3c4cc(CCc5ccsc5)ccc4[nH]c(=O)n3c2=O)cc1
Which value of Ki is smaller, the one for A or the one for B ? Please respond with the label that marks your chosen entry.
B
(B: 0.71 nM, A: 9.7 nM)
